Each item that follows carries a reported GI50.
- System: H929 human cancer cell lines
- Assay summary: Cellular viability / proliferation (Cell TiterGlo, 72 h)
- Assay type: cell-based
- Measurement conditions: Homo sapiens, NCI-H929, 72 h, read-out: GI50 on cellular proliferation of H929 human cancer cell lines, H929 cells, 72 h, Cell TiterGlo, 10% FBS
Quantity kind: GI50 (nM)

{"Smiles text": "Cc1cc(C)nc(Cn2c(C(=O)O)cc3cc(C)cc(N4C[C@@H](C)n5c(c(CCCOc6cc(C)c(Cl)c(C)c6)c6ccc(Cl)c(-c7c(C)nn(C)c7C)c65)C4=O)c32)c1", "Quantity kind": "GI50", "Comparison sign": "<", "Numeric readout": 200}
{"Smiles text": "Cc1nn(C)c(C)c1-c1c(Cl)ccc2c(CCCOc3ccc(Cl)cc3)c3n(c12)[C@H](C)CN(c1cn(C)c2ccc(C(=O)O)cc12)C3=O", "Quantity kind": "GI50", "Comparison sign": "=", "Numeric readout": 2800}
{"Smiles text": "Cc1cc(OCCCc2c3n(c4c(-c5c(C)nn(C)c5C)c(Cl)ccc24)[C@H](C)CN(c2cc(C(=O)O)cc4c2cc(C(F)(F)F)n4C)C3=O)cc(C)c1Cl", "Quantity kind": "GI50", "Comparison sign": "=", "Numeric readout": 11000}
{"Smiles text": "Cc1cc(OCCCc2c3n(c4c(-c5c(C)nn(CCN6CCCC6)c5C)c(Cl)ccc24)[C@H](C)CN(c2cccc4c2cc(C(=O)O)n4C)C3=O)cc(C)c1Cl", "Quantity kind": "GI50", "Comparison sign": "=", "Numeric readout": 820}
{"Smiles text": "Cc1cc(OCCCc2c3n(c4c(-c5c(C)nc(CN6CCNCC6)nc5C)c(Cl)ccc24)[C@H](C)CN(c2cn(C)c4ccc(C(=O)O)cc24)C3=O)cc(C)c1Cl", "Quantity kind": "GI50", "Comparison sign": "=", "Numeric readout": 4600}

* * *

Each item that follows carries a reported Ki.
- Assay system: Mcl-1 (Homo sapiens (Human))
- Sequence (Q07820 172-327): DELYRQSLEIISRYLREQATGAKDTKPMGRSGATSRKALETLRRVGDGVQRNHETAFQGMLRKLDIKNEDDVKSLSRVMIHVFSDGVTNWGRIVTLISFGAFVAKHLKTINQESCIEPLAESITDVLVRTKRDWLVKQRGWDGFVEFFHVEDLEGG
- Assay summary: Fluorescence polarization anisotropy (FPA) competition assay, FITC-Bak or FITC-Bim BH3 peptide
- Type: binding
- Measurement conditions: read-out: Ki for Inhibition of Mcl-1 by FPA assay

{"Compound": "Cc1ccc(S(=O)(=O)N2CCN(c3cc(C(=O)O)cc(CN4CCCn5c(c(CCCOc6cc(C)c(Cl)c(C)c6)c6ccc(Cl)c(-c7c(C)nn(C)c7C)c65)C4=O)n3)CC2)o1", "Comparison sign": "=", "Ki (nM)": 39}
{"Compound": "Cc1cc(OCCCc2c3n(c4c(-c5c(C)ncnc5C)c(Cl)ccc24)[C@H](C)CN(c2cccc4c(C(=O)O)cn(C)c24)C3=O)cc(C)c1Cl", "Comparison sign": "=", "Ki (nM)": 1.1}
{"Compound": "Cc1cc(N2C[C@@H](C)n3c(c(CCCOc4cc(C)c(Cl)c(C)c4)c4ccc(Cl)c(-c5c(C)nc(CN6CCOCC6)nc5C)c43)C2=O)c2c(c1)cc(C(=O)O)n2C", "Comparison sign": "<", "Ki (nM)": 1}
{"Compound": "Cc1cc(OCCCc2c3n(c4c(-c5c(C)nn(C)c5C)c(Cl)ccc24)[C@H](C)CN(c2cc(C(=O)O)c4cnn(CCN5CCOCC5)c4c2)C3=O)cc(C)c1Cl", "Comparison sign": "<", "Ki (nM)": 1}
{"Compound": "Cc1cc(OCCCc2c3n(c4c(-c5c(C)nc(N6CCN(C)CC6)nc5C)c(Cl)ccc24)CCCN(c2cn(C)c4ccc(C(=O)O)cc24)C3=O)cc(C)c1Cl", "Comparison sign": "=", "Ki (nM)": 1.6}
{"Compound": "Cc1cc(OCCCc2c3n(c4c(-c5c(C)nn(C)c5C)c(Cl)ccc24)[C@H](C)[C@@H](C)N(c2cc(C(=O)O)c4ccn(C)c4c2)C3=O)cc(C)c1Cl", "Comparison sign": "=", "Ki (nM)": 7.6}
{"Compound": "Cc1cc(OCCCc2c3n(c4c(-c5c(C)nn(CC6CCN(C)C6)c5C)c(Cl)ccc24)[C@H](C)CN(c2cn(C)c4ccc(C(=O)O)cc24)C3=O)cc(C)c1Cl (some centres unmarked)", "Comparison sign": "<", "Ki (nM)": 1}
{"Compound": "Cc1cc(OCCCc2c3n(c4c(-c5c(C)nn(C)c5C)c(Cl)ccc24)[C@H](C)CN(c2cccc4cc(C(N)=O)n(Cc5ccccn5)c24)C3=O)cc(C)c1Cl", "Comparison sign": "=", "Ki (nM)": 4.1}
{"Compound": "Cc1cc(OCCCc2c3n(c4c(-c5c(C)nn(C)c5C)c(Cl)ccc24)CCCN(c2cc(C(=O)O)cc4c2N(C)CCO4)C3=O)cc(C)c1Cl", "Comparison sign": "=", "Ki (nM)": 5.7}
{"Compound": "Cc1cc(OCCCc2c3n(c4c(-c5c(C)nc(CN6CCN(C)CC6)nc5C)c(Cl)ccc24)[C@H](C)CN(c2cn(C)c4ccc(C(=O)O)cc24)C3=O)cc(C)c1Cl", "Comparison sign": "=", "Ki (nM)": 1.8}
{"Compound": "COCCn1cc(C(=O)O)c2c(N3C[C@@H](C)n4c(c(CCCOc5cc(C)c(Cl)c(C)c5)c5ccc(Cl)c(-c6c(C)nn(C)c6C)c54)C3=O)cccc21", "Comparison sign": "=", "Ki (nM)": 1.4}

* * *

- Assay system: Mcl-1 (Homo sapiens (Human))
- Assay summary: Fluorescence polarization anisotropy (FPA) competition assay, FITC-Bak or FITC-Bim BH3 peptide
- Type: binding
- Measurement conditions: read-out: Ki for Inhibition of Mcl-1 by FPA assay
Each item that follows carries a reported Ki.
Quantity kind: Ki

{"Compound": "COCCOc1cc(N2C[C@@H](C)n3c(c(CCCOc4cc(C)c(Cl)c(C)c4)c4ccc(Cl)c(-c5c(C)nn(C)c5C)c43)C2=O)c2c(c1)cc(C(=O)O)n2C [Example 461]", "Assay system": "Mcl-1 (Homo sapiens (Human))", "Quantity kind": "Ki", "Result": "< 1 nM"}
{"Compound": "COc1ccc(Cn2c(C(=O)O)cc3cccc(N4C[C@@H](C)n5c(c(CCCOc6cc(C)c(Cl)c(C)c6)c6ccc(Cl)c(-c7c(C)nn(C)c7C)c65)C4=O)c32)nc1 [Example 382]", "Assay system": "Mcl-1 (Homo sapiens (Human))", "Quantity kind": "Ki", "Result": "1.2 nM"}
{"Compound": "Cc1cc(OCCCc2c3n(c4c(-c5c(C)nn(C)c5C)c(Cl)ccc24)[C@H](C)CN(c2cc(C(=O)O)c4cnn(C)c4c2)C3=O)cc(C)c1Cl [Example 53]", "Assay system": "Mcl-1 (Homo sapiens (Human))", "Quantity kind": "Ki", "Result": "< 1 nM"}
{"Compound": "CCn1nc2c(N3C[C@@H](C)n4c(c(CCCOc5cc(C)c(Cl)c(C)c5)c5ccc(Cl)c(-c6c(C)nn(C)c6C)c54)C3=O)cccc2c1C(=O)O [Example 117]", "Assay system": "Mcl-1 (Homo sapiens (Human))", "Quantity kind": "Ki", "Result": "< 1 nM"}
{"Compound": "Cc1cc(OCCCc2c3n(c4c(-c5c(C)nn(C)c5C)c(Cl)ccc24)[C@H](C)CN(c2ccc4c(c2)c(C(=O)O)nn4C)C3=O)cc(C)c1Cl [Example 116]", "Assay system": "Mcl-1 (Homo sapiens (Human))", "Quantity kind": "Ki", "Result": "< 1 nM"}
{"Compound": "Cc1cc(OCCCc2c3n(c4c(-c5c(C)nn(C)c5C)c(Cl)ccc24)[C@H](C)CN(c2cn(Cc4ccccn4)c4cc(C(=O)O)ccc24)C3=O)cc(C)c1Cl [Example 338]", "Assay system": "Mcl-1 (Homo sapiens (Human))", "Quantity kind": "Ki", "Result": "< 1 nM"}
{"Compound": "Cc1cc(OCCCc2c3n(c4c(-c5c(C)nc(CN6CCCC6)nc5C)c(Cl)ccc24)CCCN(c2cn(C)c4ccc(C(=O)O)cc24)C3=O)cc(C)c1Cl [Example 373]", "Assay system": "Mcl-1 (Homo sapiens (Human))", "Quantity kind": "Ki", "Result": "1.6 nM"}
{"Compound": "Cc1cc(OCCCc2c3n(c4c(-c5c(C)nn(C)c5C)c(Cl)ccc24)[C@H](C)CN(c2cc(C(=O)O)cc4c2OCO4)C3=O)cc(C)c1Cl [Example 33]", "Assay system": "Mcl-1 (Homo sapiens (Human))", "Quantity kind": "Ki", "Result": "< 1 nM"}
{"Compound": "Cc1cc(OCCCc2c3n(c4c(-c5c(C)nn(C)c5C)c(Cl)ccc24)[C@H](C)CN(c2cccc4c2cc(C(=O)O)n4CC2CCOCC2)C3=O)cc(C)c1Cl [Example 198]", "Assay system": "Mcl-1 (Homo sapiens (Human))", "Quantity kind": "Ki", "Result": "< 1 nM"}
{"Compound": "Cc1cc(N2C[C@@H](C)n3c(c(CCCOc4cc(C)c(Cl)c(C)c4)c4ccc(Cl)c(-c5c(C)nn(C)c5C)c43)C2=O)c2c(c1)cc(C(=O)O)n2C [Example 201]", "Assay system": "Mcl-1 (Homo sapiens (Human))", "Quantity kind": "Ki", "Result": "< 1 nM"}
{"Compound": "Cc1cc(OCCCc2c3n(c4c(-c5c(C)nn(C)c5C)c(Cl)ccc24)[C@H](C)CN(c2cn(C)c4cc(C(N)=O)ccc24)C3=O)cc(C)c1Cl [Example 277]", "Assay system": "Mcl-1 (Homo sapiens (Human))", "Quantity kind": "Ki", "Result": "6.6 nM"}
{"Compound": "Cc1cc(OCCCc2c3n(c4c(-c5c(C)ncnc5C)c(Cl)ccc24)CCCN(c2cn(C)c4ccc(C(=O)O)cc24)C3=O)cc(C)c1Cl [Example 156]", "Assay system": "Mcl-1 (Homo sapiens (Human))", "Quantity kind": "Ki", "Result": "< 1 nM"}
{"Compound": "Cc1cc(OCCCc2c3n(c4c(-c5c(C)nn(C)c5C)c(Cl)ccc24)[C@H](C)CN(c2cccc4cc(C(=O)O)n(Cc5cccnc5)c24)C3=O)cc(C)c1Cl [Example 245]", "Assay system": "Mcl-1 (Homo sapiens (Human))", "Quantity kind": "Ki", "Result": "< 1 nM"}
{"Compound": "Cc1cc(OCCCc2c3n(c4c(-c5c(C)n[nH]c5C)c(Cl)ccc24)[C@H](C)CN(c2cc(C(=O)O)cc4c2ccn4C)C3=O)cc(C)c1Cl [Example 71]", "Assay system": "Mcl-1 (Homo sapiens (Human))", "Quantity kind": "Ki", "Result": "< 1 nM"}
{"Compound": "Cc1cc(OCCCc2c3n(c4c(-c5c(C)nn(C)c5C)c(Cl)ccc24)[C@H](C)CN(c2cn(C)c4cc(S(C)(=O)=O)ccc24)C3=O)cc(C)c1Cl [Example 222]", "Assay system": "Mcl-1 (Homo sapiens (Human))", "Quantity kind": "Ki", "Result": "6.9 nM"}
{"Compound": "Cc1cc(OCCCc2c3n(c4c(-c5c(C)nn(C)c5C)c(Cl)ccc24)[C@H](C)CN(c2cn(C)c4ccc(-c5nnc(C6CC6)o5)cc24)C3=O)cc(C)c1Cl [Example 423]", "Assay system": "Mcl-1 (Homo sapiens (Human))", "Quantity kind": "Ki", "Result": "2.3 nM"}
{"Compound": "Cc1cc(OCCCc2c3n(c4c(-c5c(C)nn(C)c5C)c(Cl)ccc24)[C@H](C)CN(c2cccc4c(C(=O)O)cn(C)c24)C3=O)cc(C)c1Cl [Example 214]", "Assay system": "Mcl-1 (Homo sapiens (Human))", "Quantity kind": "Ki", "Result": "< 1 nM"}
{"Compound": "Cc1cc(OCCCc2c(C(=O)NC3CCC(C(=O)O)CC3)[nH]c3c(-c4c(C)ncnc4C)c(Cl)ccc23)cc(C)c1Cl (single isomer, unassigned) [Example 746]", "Assay system": "Mcl-1 (Homo sapiens (Human))", "Quantity kind": "Ki", "Result": "5.2 nM"}
{"Compound": "Cc1nc(-c2ccc3c(c2)c(N2C[C@@H](C)n4c(c(CCCOc5cc(C)c(Cl)c(C)c5)c5ccc(Cl)c(-c6c(C)nn(C)c6C)c54)C2=O)cn3C)no1 [Example 429]", "Assay system": "Mcl-1 (Homo sapiens (Human))", "Quantity kind": "Ki", "Result": "1.8 nM"}
{"Compound": "Cc1cc(OCCCc2c3n(c4c(-c5c(C)nn(C)c5C)c(Cl)ccc24)[C@H](C)CN(c2coc4ccccc24)C3=O)cc(C)c1Cl (single isomer, unassigned) [Example 237]", "Assay system": "Mcl-1 (Homo sapiens (Human))", "Quantity kind": "Ki", "Result": "14 nM"}
{"Compound": "Cc1cc(OCCCc2c3n(c4c(-c5c(C)nn(C)c5C)c(Cl)ccc24)[C@H](C)CN(c2nn(C)c4cccc(C(=O)O)c24)C3=O)cc(C)c1Cl [Example 175]", "Assay system": "Mcl-1 (Homo sapiens (Human))", "Quantity kind": "Ki", "Result": "< 1 nM"}
{"Compound": "Cc1cc(N2C[C@@H](C)n3c(c(CCCOc4cc(C)c(Cl)c(C)c4)c4ccc(Cl)c(-c5c(C)nn(C)c5C)c43)C2=O)c2c(c1)cc(C(=O)O)n2CC1CCOCC1 [Example 324]", "Assay system": "Mcl-1 (Homo sapiens (Human))", "Quantity kind": "Ki", "Result": "< 1 nM"}

Hey, just so you know, these numbers are from patent US11596639B2.
